# pIC50 per record follows
biological target: chicken gizzard smooth muscle myosin subfragment-1 chemically crosslinked to cardiac or skeletal actin (Gallus gallus, UniProt P10587)
The value called pIC50 is obtained by taking minus log10 of the concentration in mol/L.

Reference set, count: 8
N#Cc1[nH]ncc1-c1ccc(C(=O)NCc2cccnc2)c(NCCc2cccc(F)c2)n1	6.98
O=C(NCc1cccnc1)c1ccc(-c2ccccc2)nc1NCCCc1ccccc1	5.24
COc1ccc(Cl)c(-c2ccc(C(=O)NCc3cccnc3)c(NCCc3cccc(F)c3)n2)c1	5.70
Cc1cc(C(=O)NCc2cccnc2CN)c(NCCc2cccc(F)c2)nc1-c1ccccc1C#N	6.80
Cn1cnc(CCNc2nc(-c3ccccc3)ccc2C(=O)NCc2cccnc2)c1	4.49
N#Cc1ccccc1-c1ccc(C(=O)NCc2cncc(CO)c2)c(NCCc2cccc(F)c2)n1	7.09
N#Cc1ccccc1-c1ccc(C(=O)N[C@H](CCCCN)C(N)=O)c(NCCc2cccc(F)c2)n1	5.89
N#Cc1ccccc1-c1ccc(C(=O)NCc2ccn(CCN)n2)c(NCCc2cccc(F)c2)n1	6.53

Quick one: pIC50 of Cn1cc(-c2nc(NCCc3cccc(F)c3)c(C(=O)NC[C@H]3CCCN3C(=O)OC(C)(C)C)cc2Cl)cn1 ?
5.80

Please do the same for C[C@H](NC(=O)OC(C)(C)C)C(=O)N1CCC[C@@H]1CNC(=O)c1cc(F)c(-c2cnn(C)c2)nc1NCCc1cccc(F)c1 as well.
5.71

Please do the same for O=C(NCc1cccnc1)c1ccc(-c2ccc(Cl)c(Cl)c2)nc1NCCc1ccccn1 as well.
5.47

Attribution: patent US7932270B2
